- assay: qHTS for Inhibitors of human tyrosyl-DNA phosphodiesterase 1 (TDP1): qHTS in cells in absence of CPT; note: nearly all actives have a fitted effect of over 55% in size; note: potency is the fitted concentration of half-maximal effect
- assay.conditions: DT40 Tdp1-/- hTDP1 cells, no CPT, ATP luminescence, 48 h
The campaign covered roughly 420,000 compounds. About 64,000 (15%) were called active. Another 27% or so got no clear call; they are omitted. Only a sample is shown.
measured.parameter: Potency

For orientation, consider the following solved cases.
>>> df
                                   compound         meas_value
0  CC(=O)N1CCN(S(=O)(=O)c2cccc(C(=O)NC3CCC(C)CC3)c2)CC1 (stereo unspecified)           inactive
1           CCn1nccc1C(=O)Nc1ccc(Cl)c(Cl)c1           inactive
2   O=C(CSc1nnc(-c2ccco2)o1)NCC(=O)c1ccccc1           inactive
3  COc1cccc(-c2coc3cc4oc(=O)c(CC(=O)O)c(C)c4cc23)c1           inactive
4  CC1CCN(C(=O)c2cccc(S(=O)(=O)N3CCCc4ccccc43)c2)CC1   11.6 µM (active)
5  CCn1nccc1C(=O)Nc1ccc(S(=O)(=O)NC23CC4CC(CC(C4)C2)C3)cc1   16.4 µM (active)
6  O=C(Nc1ccc(S(=O)(=O)Nc2ncccn2)cc1)C12CC3CC(CC(C3)C1)C2           inactive
7  CCN1/C(=C\c2ccc3ccccc3[n+]2CC)Sc2cc(C)ccc21  0.184 µM (active)

Prompt: Quick one: Potency for Cc1ccc(C(=O)CSc2ccccc2C(=O)O)cc1 ?
Completion: inactive

Prompt: Let us now turn to CCOC(=O)c1nc(C)n(-c2ccc(Cl)cc2Cl)n1
Completion: inactive

Prompt: Let us now turn to CCCn1nc(Oc2nc(NC(C)C)nc(N(C)C)n2)ccc1=O
Completion: inactive

====

- assay: qHTS for Inhibitors of human tyrosyl-DNA phosphodiesterase 1 (TDP1): qHTS in cells in absence of CPT; note: nearly all actives have a fitted effect of over 55% in size
- assay.conditions: DT40 Tdp1-/- hTDP1 cells, no CPT, ATP luminescence, 48 h
In all, about 420,000 compounds went through this assay and about 64,000 (15%) were called active. Roughly 27% stayed inconclusive and do not appear here. Calls follow the shape of the dose curve; as a rule, active = well fitted inhibition curve with a large enough effect; inconclusive = small, poorly fitted or top-dose-only effect; inactive = flat fitted curve, though single readings scatter. Only a sample is shown.
Permitted responses: Yes = active, No = inactive

                                   molecule  class_assignment
0  COc1ccc(S(=O)(=O)N2CCOC2CNC(=O)C(=O)NCc2ccncc2)cc1OC (stereo not given)                No
1  Cc1ccc(S(=O)(=O)N2CCCC2CO)cc1 (stereo not given)                No
2  CCNC(=S)N1CCC(c2nc3cc(C)c(C)cc3[nH]2)CC1                No
3  Cc1cc(NS(=O)(=O)c2ccc(NC(=O)c3cccc(OC(F)F)c3)cc2)nc(C)n1                No
4        O=C(CSC1=NCCS1)Nc1nc(-c2ccccc2)cs1                No

Prompt: State the result this test recorded for CC(=O)C1=CCC(c2ccccc2)N(S(=O)(=O)c2ccc(C)cc2)C1 (stereo not given) .
Completion: Yes

Prompt: Let us now turn to O=C(COC(=O)Cn1[nH]c(=O)c2ccccc2c1=O)Nc1ncc(Cl)cc1Cl
Completion: No

Prompt: Let us now turn to CCOC(=O)C1=CCC(c2ccc(F)cc2)N(S(=O)(=O)c2ccc(C)cc2)C1 (stereo not given)
Completion: Yes

Prompt: Let us now turn to O=S1(=O)CCO[C@H]2Cc3ccccc3[C@H]2N1Cc1ccccc1
Completion: No

Prompt: Let us now turn to COc1ccccc1N(CC(=O)Nc1ccccc1C(=O)N1CCCC1)S(C)(=O)=O
Completion: No

====

- assay: qHTS for Inhibitors of human tyrosyl-DNA phosphodiesterase 1 (TDP1): qHTS in cells in absence of CPT; note: nearly all actives have a fitted effect of over 55% in size
- assay.conditions: DT40 Tdp1-/- hTDP1 cells, no CPT, ATP luminescence, 48 h
Out of some 420,000 compounds screened, about 64,000 (15%) were called active. About 27% were inconclusive and are not listed. Calls come from the whole dose curve; as a rule, active = well fitted inhibition curve with a large enough effect; inconclusive = small, poorly fitted or top-dose-only effect; inactive = flat fitted curve, though single readings scatter. These entries were drawn from the full list.
Permitted responses: active, inactive

Use the examples below as a reference point.
>>> print(df.to_string())
                                   compound  class_assignment
0  CC(NCCc1ccc(S(N)(=O)=O)cc1)C(=O)NCc1ccccc1 (stereo not drawn)          inactive
1  COC(=O)C1=C(C)N(C)C(=S)NC1c1cc(OC)ccc1OC (stereo not drawn)          inactive

We now examine a further compound.
Prompt: State the result this test recorded for CCc1nn(CC(=O)N2CCN(c3cc(C)ccc3C)CC2)c(=O)c2cc3occc3n12 .
Completion: inactive

====

- assay: qHTS for Inhibitors of human tyrosyl-DNA phosphodiesterase 1 (TDP1): qHTS in cells in absence of CPT; note: nearly all actives have a fitted effect of over 55% in size
- assay.conditions: DT40 Tdp1-/- hTDP1 cells, no CPT, ATP luminescence, 48 h
In all, about 420,000 compounds went through this assay and about 64,000 (15%) were called active. Roughly 27% stayed inconclusive and do not appear here. Calls come from the whole dose curve; as a rule, active = well fitted inhibition curve with a large enough effect; inconclusive = small, poorly fitted or top-dose-only effect; inactive = flat fitted curve, though single readings scatter. The list is a sample of the results.
Permitted responses: label 1 for active, label 0 for inactive

Use the examples below as a reference point.
>>> df
                            compound_smiles  class_assignment
0  CN1CCN(S(=O)(=O)c2cccc(C(=O)Nc3sccc3C#N)c2)CC1           label 0
1  CCOC(=O)c1csc(NC(=O)c2ccc(S(=O)(=O)N3CCCC3)cc2)n1           label 0
2                     O=P(O)(O)OC[C@H](O)CO           label 0
3      O=C(CNC(=O)c1ccc2ccccc2c1)Nc1ncccc1O           label 0
4  CCc1nnc(NC(=O)c2cc(S(=O)(=O)N3CCCCC3)ccc2C)s1           label 0
5  NS(=O)(=O)c1ccc(CCNS(=O)(=O)c2cccc3cccnc23)cc1           label 0
6  Cc1cccnc1NC(=O)c1cccc(S(=O)(=O)N2CCN(c3ccc(F)cc3)CC2)c1           label 1
7   Cc1nc(Nc2ccccc2F)c2nnn(Cc3ccccc3Cl)c2n1           label 0
8         NNC(=O)c1cnn(-c2ccccc2)c1C(F)(F)F           label 0
9  O=C1CN(C(=O)COC(=O)c2cnc(Cl)c(Cl)c2)c2ccccc2N1           label 0

We now examine a further compound.
Prompt: State the result this test recorded for O=S(=O)(c1cc(Cl)ccc1Cl)N1CCN(Cc2ccco2)CC1 .
Completion: label 0

====

- assay: qHTS for Inhibitors of human tyrosyl-DNA phosphodiesterase 1 (TDP1): qHTS in cells in absence of CPT; note: nearly all actives have a fitted effect of over 55% in size
- assay.conditions: DT40 Tdp1-/- hTDP1 cells, no CPT, ATP luminescence, 48 h
Out of some 420,000 compounds screened, about 64,000 (15%) were called active. Another 27% or so got no clear call; they are omitted. Calls follow the shape of the dose curve; as a rule, active = well fitted inhibition curve with a large enough effect; inconclusive = small, poorly fitted or top-dose-only effect; inactive = flat fitted curve, though single readings scatter. The list is a sample of the results.
Permitted responses: 1.0 (active), 0.0 (inactive)

In [3]: df
Out[3]:
                                   compound  class_assignment
0  CN(C)C(=O)c1nc2ccc(Cl)cn2c1CN1CCN(c2ncccn2)CC1               0.0
1   Cc1ccc(Cc2c(-c3ccco3)nc3ccc(Cl)cn23)cc1               1.0
2  O=C(COC(=O)c1c(Cl)cccc1Cl)Nc1cccc(S(=O)(=O)NC2=NCCCCC2)c1               0.0

Prompt: State the result this test recorded for CN1CCN(C(=O)c2ccc(NC(=O)c3ccc(Br)o3)cc2)CC1 .
Completion: 0.0

Prompt: Let us now turn to CC(=O)Nc1c(-c2ccc(C)cc2)nc2ccc(Cl)cn12
Completion: 0.0

Prompt: Let us now turn to CCO[C@H]1OC(C(=O)N2CCOCC2)=C[C@@H](c2ccc3c(c2)OCO3)[C@@H]1CCCO
Completion: 0.0

====

- assay: qHTS for Inhibitors of human tyrosyl-DNA phosphodiesterase 1 (TDP1): qHTS in cells in absence of CPT; note: nearly all actives have a fitted effect of over 55% in size
- assay.conditions: DT40 Tdp1-/- hTDP1 cells, no CPT, ATP luminescence, 48 h
In all, about 420,000 compounds went through this assay and about 64,000 (15%) were called active. Another 27% or so got no clear call; they are omitted. Calls follow the shape of the dose curve; as a rule, active = well fitted inhibition curve with a large enough effect; inconclusive = small, poorly fitted or top-dose-only effect; inactive = flat fitted curve, though single readings scatter. These entries were drawn from the full list.
Permitted responses: active, inactive

Use the examples below as a reference point.
>>> print(df.to_string())
                                   molecule  class_assignment
0  CCc1ccc(-n2nnc(-c3nc(-c4ccccc4)no3)c2C)cc1          inactive
1  CC(=O)Nc1ccc(S(=O)(=O)N2CCn3cccc3C2C)cc1 (stereo unspecified)          inactive
2  O=C(c1cccc(Br)c1)N1CCN(Cc2cc(=O)n3nc(-c4ccccc4)sc3n2)CC1          inactive
3  Nc1ccc(/C=C/c2ccnc3ccccc23)c([N+](=O)[O-])c1            active
4  NC(=O)Cn1nc([N+](=O)[O-])nc1Oc1ccc(Br)cc1          inactive

Prompt: State the result this test recorded for C=CCc1c(C)nc2cc(-c3ccccc3)[nH]n2c1=O .
Completion: inactive

Prompt: Let us now turn to N=c1ccn(CC(=O)NC(N)=O)c2ccccc12
Completion: inactive

Prompt: Let us now turn to Cc1cc(C(=O)N2CCCC2(C)C(=O)O)c(C)o1 (stereo unspecified)
Completion: inactive
